# System: NCI-H226 lung
# Method Summary: NCI-60 one-dose screen, 48 h (100 = growth as untreated, 0 = no growth, -100 = all killed)
# Setup Conditions: 10 µM unless noted
# Description: Growth inhibition of the NCI-H226 human Non-Small Cell Lung tumor cell line is measured as a screen for anti-cancer activity. Cells are grown in 96 well plates and exposed to the test compound for 48 hours. Compounds are tested at a single concentration, which is 10^-5 M for most compounds. The reported endpoint is percent growth (GI% or GIPRCNT), where numbers from 0 - 100% represent growth inhibition, and numbers from -100% - 0 represent cell death. […]
The panel holds about 83,000 compounds, 20% with a hit somewhere; the sample as a whole holds those more often.
Recorded Metric: growth (%)
The response must be a number in % with no trailing unit.

Would you please look over these solved cases?
O=C(CSc1nc(-c2ccccc2)[nH]c1S(=O)(=O)c1ccccc1)NC1CC1 :: 85.8
COc1ccc(-c2nc3c(c(-c4ccccc4)nn3-c3ccccc3)c(-c3ccc(N4CCN(C)CC4)cc3)c2C#N)cc1 :: 94.2
CCOC(=O)c1cc(-c2ccc([N+](=O)[O-])cc2)n(-c2ccc(C(=O)O)c(O)c2)c1C :: 83.5

Now consider a different compound.
Fill blank: measured growth of the compound O=C(O)c1[nH]c(=O)[nH]c(=O)c1[N+](=O)[O-] is ____.
108

Source: PubChem BioAssay (NCI)
